Assignment: determine reported pEC50 for the given compounds.
molecular target: glucocorticoid receptor (GR) (Homo sapiens); assay: Assay for agonist activity on glucocorticoid receptor (luciferase reporter, HEK293 cells transfected with pBIND-GR plasmid); assay type: cell-based; settings: HEK293 cells transfected with pBIND-GR, luciferase signal; read-out: GR agonist EC50
Sequence (P04150 521-777): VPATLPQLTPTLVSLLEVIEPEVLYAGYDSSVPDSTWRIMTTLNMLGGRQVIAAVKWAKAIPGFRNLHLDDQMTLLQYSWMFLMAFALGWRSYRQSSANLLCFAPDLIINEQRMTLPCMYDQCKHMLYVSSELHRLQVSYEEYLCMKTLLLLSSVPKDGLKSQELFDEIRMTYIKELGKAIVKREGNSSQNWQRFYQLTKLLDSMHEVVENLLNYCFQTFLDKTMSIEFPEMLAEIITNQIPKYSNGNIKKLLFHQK
Scale: negative log10 of molar concentration, which is what pEC50 denotes.

GET /values?readout=pEC50&item= C[C@]12C=CC(=O)C=C1[C@@H](F)C[C@H]1[C@@H]3C[C@H]4OC(c5ccc(NC(=O)C6COC(=O)C6)cc5)O[C@@]4(C(=O)SCF)[C@@]3(C)C[C@H](O)[C@@]12F (some centres unmarked)
8.28

GET /values?readout=pEC50&item= C[C@]12C=CC(=O)C=C1CC[C@H]1[C@@H]3C[C@H]4OC(c5ccc(C[S+]([O-])C6CCOC6=O)cc5)O[C@@]4(C(=O)CO)[C@@]3(C)C[C@H](O)[C@@]12Cl (some centres unmarked)
9.07

GET /values?readout=pEC50&item= C[C@]12C=CC(=O)C=C1CC[C@H]1[C@@H]3C[C@H]4OC(c5ccc(CNC6COC(=O)C6)cc5)O[C@@]4(C(=O)CO)[C@@]3(C)C[C@H](O)[C@@]12Cl (some centres unmarked)
8.74

GET /values?readout=pEC50&item= C[C@]12C=CC(=O)C=C1CC[C@@H]1[C@@H]2[C@@H](O)C[C@@]2(C)[C@H]1C[C@H]1OC(c3ccc(CSC4CCOC4=O)cc3)O[C@]12C(=O)CO (some centres unmarked)
8.44

GET /values?readout=pEC50&item= C[C@]12C=CC(=O)C=C1[C@@H](F)C[C@H]1[C@@H]3C[C@H]4OC(c5ccc(COC6CCOC6=O)cc5F)O[C@@]4(C(=O)CO)[C@@]3(C)C[C@H](O)[C@@]12F (some centres unmarked)
8.92

---

tested on: intraocular pressure of guinea pigs; assay: Adverse reactions of continuous ocular administration: intraocular pressure; format: in vivo; conditions: D28; 50 µL/eye (compounds and fluorometholone 1 mg/mL, loteprednol 5 mg/mL)
Assignment: determine reported Intraocular pressure of guinea pigs (mmHg) D28 for the given compounds.
A number alone suffices; assume mmHg.

GET /values?readout=Intraocular pressure of guinea pigs (mmHg) D28&item= CC(=O)[C@@]1(O)CC[C@H]2[C@@H]3C[C@H](C)C4=CC(=O)C=C[C@]4(C)[C@@]3(F)[C@@H](O)C[C@@]21C [Fluorometholone, reference compound]
22.5

GET /values?readout=Intraocular pressure of guinea pigs (mmHg) D28&item= C[C@]12C=CC(=O)C=C1CC[C@H]1[C@@H]3C[C@H]4OC(c5ccc(CSC6CCOC6=O)cc5)O[C@@]4(C(=O)CO)[C@@]3(C)C[C@H](O)[C@@]12Cl (stereo partly shown)
14.9

GET /values?readout=Intraocular pressure of guinea pigs (mmHg) D28&item= CCOC(=O)O[C@]1(C(=O)OCCl)CC[C@H]2[C@@H]3CCC4=CC(=O)C=C[C@]4(C)[C@H]3[C@@H](O)C[C@@]21C [Loteprednol, Loteprednol Etabonate, reference compound]
19.5

GET /values?readout=Intraocular pressure of guinea pigs (mmHg) D28&item= C[C@]12C=CC(=O)C=C1CC[C@H]1[C@@H]3C[C@H]4OC(c5ccc(CSC6CCOC6=O)cc5)O[C@@]4(C(=O)CO)[C@@]3(C)C[C@H](O)[C@@]12F (stereo partly shown)
14.3
